- Tested on: Haemophilus influenzae ATCC 49766
- assay-text: MIC, broth microdilution (CLSI), H. influenzae
- Assay type: cell-based
- Design: unit not given beside the values
readout-kind: MIC H. influenzae
# answer = number (no unit)

Examples with their reported MIC H. influenzae follow.
INSERT INTO measurements (compound, readout_kind, value_observed) VALUES
  ('Cc1cc(NCc2cc(F)cc(C(F)(F)F)c2)nc2nc(N)nc(N)c12 [III-b]', 'MIC H. influenzae', 32),
  ('Cc1cc(NCc2cc(F)c(F)c(F)c2)nc2nc([N+](=O)[O-])nc([N+](=O)[O-])c12 [VIII-a]', 'MIC H. influenzae', 32),
  ('Cc1c(C(C)C)c(NCc2cc(F)cc(C(F)(F)F)c2)nc2nc(N)nc(N)c12 [II-f]', 'MIC H. influenzae', 32);

With those in mind, consider the next compound.
Req: Request body: readout MIC H. influenzae, system Haemophilus influenzae ATCC 49766, query Cc1cc(N2CCCc3ccccc32)nc2nc(N)nc(N)c12 [V-a] . Return the value.
Resp: 16

###

Entries annotated with measured CC50
- assay-text: Acute toxicity, Alamar blue cell viability, HepG2
- Type: cell-based
- condition-notes: human
# value in µM; strip the unit string

INSERT INTO measurements (cpd_smiles, readout_kind, value_observed) VALUES
  ('Cc1cc(NCc2ccc(C(F)(F)F)cc2)nc2nc(N)nc(N)c12', 'CC50', 22.8),
  ('COc1cc(CN(C)c2nc3nc(N)nc(N)c3c(C)c2C2CCCC2)cc(OC)c1', 'CC50', 17.5),
  ('Cc1c(N(C)C2CCCCC2)nc2nc(N)nc(N)c2c1C', 'CC50', 19),
  ('Cc1cc(NCc2cc(C(F)(F)F)cc(C(F)(F)F)c2)nc2nc(N)nc(N)c12', 'CC50', 19.5),
  ('Nc1nc(N)c2c3c(c(NCc4ccc(F)c(F)c4)nc2n1)CCCC3', 'CC50', 19.2),
  ('CCCc1cc(N(C)C2CCCCC2)nc2nc(N)nc(N)c12', 'CC50', 15.1),
  ('Cc1c(Cc2ccccc2)c(NCc2ccc(F)c(F)c2)nc2nc(N)nc(N)c12', 'CC50', 14),
  ('CCCCc1c(NCc2ccc(F)c(F)c2)nc2nc(N)nc(N)c2c1C', 'CC50', 17.2),
  ('Cc1c(Cc2ccccc2)c(N(C)C2CCCCC2)nc2nc(N)nc(N)c12', 'CC50', 15);

Req: If you can, please state the reported CC50 value of Cc1cc(N(C)C2CCCCC2)nc2nc(N)nc(N)c12 .
Resp: 23.4

###

- Tested on: Streptococcus pyogenes ATCC 19615
- assay-text: MIC, broth microdilution (CLSI), S. pyogenes
- Type: cell-based
readout-kind: MIC S. pyogenes
# answer = number (no unit)

INSERT INTO results (cpd_smiles, study_target, value_observed) VALUES
  ('Cc1c(C2CCCC2)c(NCc2ccc(F)c(F)c2)nc2nc(N)nc(N)c12', 'Streptococcus pyogenes ATCC 19615', 4),
  ('Cc1cc(NCc2cc(F)c(F)c(F)c2)nc2nc([N+](=O)[O-])nc([N+](=O)[O-])c12', 'Streptococcus pyogenes ATCC 19615', 8),
  ('Cc1c(C(C)C)c(NCc2cc(F)cc(C(F)(F)F)c2)nc2nc(N)nc(N)c12', 'Streptococcus pyogenes ATCC 19615', 8),
  ('Cc1cc(NCc2cc(F)cc(C(F)(F)F)c2)nc2nc(N)nc(N)c12', 'Streptococcus pyogenes ATCC 19615', 4),
  ('COc1cc(CN(C)c2cc(C)c3c(N)nc(N)nc3n2)cc(OC)c1', 'Streptococcus pyogenes ATCC 19615', 8),
  ('COc1cc(CN(C)c2cc(C)c3c(N)nc(N)nc3n2)cc(OC)c1OC', 'Streptococcus pyogenes ATCC 19615', 64);

Req: If you can, please state the reported MIC S. pyogenes value of Cc1cc(NCc2ccc(C(F)(F)F)cc2)nc2nc(N)nc(N)c12 .
Resp: 4

Req: If you can, please state the reported MIC S. pyogenes value of Cc1cc(N2Cc3ccccc3C2)nc2nc(N)nc(N)c12 .
Resp: 16
